These data points were gathered from patent US20050090524A1.

Where a name gives a salt, the structure may show the parent alone.
Property: melting point; scope: individual compounds

compound | melting point
Cc1ccc2nc(N3CC[C@H](NC(=O)N4CC[C@H](N)C4)C3)ccc2c1NC(=O)CC12CC3CC(CC(C3)C1)C2 (as salt: hydrochloride) | 270 °C
O=C(NCC12CC3CC(CC(C3)C1)C2)c1cc(CCCNCCCO)nc2ccccc12 (as salt: salt) | 147 to 148 °C (dec.)
O=C(NCC12CC3CC(CC(C3)C1)C2)c1c(Cl)ccc2nc(CN3CCNCC3)ccc12 (as salt: hydrochloride) | 208 °C (dec.)

IN: Give the reported melting point for this compound. CNCCCN(C)c1ccc2c(C(=O)NCC34CC5CC(CC(C5)C3)C4)c(Cl)ccc2n1 (as salt: TFA)
OUT: 195 to 200 °C

IN: For the compound O=C(CC12CC3CC(CC(C3)C1)C2)Nc1c(Cl)ccc2nc(NCCCNCCO)ccc12 (as salt: hydrochloride) , report melting point.
OUT: 264 to 266 °C

IN: Return reported melting point. Input compound: Cc1ccc2nc(NCCO)ccc2c1NC(=O)CC12CC3CC(CC(C3)C1)C2 (as salt: trifluoroacetic acid salt)
OUT: 103 to 107 °C

IN: Annotate the compound CNCCCc1ccc2c(C(=O)NCC34CC5CC(CC(C5)C3)C4)cccc2n1 (as salt: hydrochloride) with its measured melting point.
OUT: 158 to 160 °C

* * *

Structures can show the parent of a compound that is named as a salt.
Measured melting point of individual entries

Record excerpt, results attached:
compound | melting point
O=C(NCC12CC3CC(CC(C3)C1)C2)c1cccc2ncccc12 (as salt: trifluoroacetate) | 125 to 127 °C (dec.)
O=C(CC12CC3CC(CC(C3)C1)C2)Nc1c(Cl)ccc2ncccc12 | 219 to 220 °C

Note: attention shifts to another entry.
IN: Specify melting point for O=C(CC12CC3CC(CC(C3)C1)C2)Nc1c(Cl)ccc2nc(CC[C@@H](O)CO)ccc12 (as salt: hydrochloride) and stop.
OUT: 147 to 150 °C

* * *

Structures can show the parent of a compound that is named as a salt.
measurement type: melting point

Use the examples below as a reference point.
molecule | melting point
Cc1ccc2nc(N3CCC(NCCO)CC3)ccc2c1NC(=O)CC12CC3CC(CC(C3)C1)C2 (as salt: hydrochloride) [Example 181, Dihydrochloride] | 306 °C
CNCCNc1ccc2c(NC(=O)CC34CC5CC(CC(C5)C3)C4)c(Cl)ccc2n1 (as salt: hydrochloride) | 232 to 234 °C
CCNCCCc1ccc2c(C(=O)NCC34CC5CC(CC(C5)C3)C4)cccc2n1 (as salt: hydrochloride) [Example 173, Dihydrochloride] | 150 to 155 °C
Cc1ccc2nc(N3CC[C@H](N)C3)ccc2c1NC(=O)CC12CC3CC(CC(C3)C1)C2 (as salt: hydrochloride) | 291 °C
Cc1ccc2nc(N(C)CCN(C)C)ccc2c1NC(=O)CC12CC3CC(CC(C3)C1)C2 (as salt: trifluoroacetic acid salt) | 193 to 195 °C
CNCCCc1cccc2c(C(=O)NCC34CC5CC(CC(C5)C3)C4)ccnc12 (as salt: hydrochloride) | 243 to 246 °C (dec.)
Cc1ccc2nc(N3CCNCC3)ccc2c1NC(=O)CC12CC3CC(CC(C3)C1)C2 (as salt: hydrochloride) [Example 178, Dihydrochloride] | 276 °C
O=C(NCC12CC3CC(CC(C3)C1)C2)c1cccc2nc(CCCNCCCO)ccc12 (as salt: hydrochloride) | 150 to 152 °C

IN: For O=C(CC12CC3CC(CC(C3)C1)C2)Nc1c(Cl)ccc2nc(N3CCNCC3)ccc12 (as salt: hydrochloride) , write its melting point.
OUT: 280 to 283 °C

IN: Given the molecule O=C(CC12CC3CC(CC(C3)C1)C2)Nc1c(Cl)ccc2nc(CN3CCNCC3)ccc12 (as salt: trifluoroacetate) , write its reported melting point.
OUT: 132 to 136 °C

* * *

Where a name gives a salt, the structure may show the parent alone.
As shown below, each of these compounds has a reported melting point value.

compound | melting point
Cc1ccc2nc(N3CCN(CCO)CC3)ccc2c1NC(=O)CC12CC3CC(CC(C3)C1)C2 (as salt: hydrochloride) | 224 °C
Cc1ccc2nc(NCCNCCO)ccc2c1NC(=O)CC12CC3CC(CC(C3)C1)C2 (as salt: hydrochloride) | 227 to 230 °C
CNCCCNc1ccc2c(NC(=O)CC34CC5CC(CC(C5)C3)C4)c(C)ccc2n1 | 217 to 224 °C
O=C(CC12CC3CC(CC(C3)C1)C2)Nc1cccc2nc(CCCNCCCO)ccc12 (as salt: hydrochloride) [Example 177, Dihydrochloride] | 130 to 135 °C

Shifting focus to the compound that follows.
IN: Given O=C(CC12CC3CC(CC(C3)C1)C2)Nc1c(Cl)ccc2nc(CN[C@@H]3CCNC3)ccc12 (as salt: trifluoroacetate) , respond with its melting point.
OUT: 90 to 91 °C

* * *

Where a name gives a salt, the structure may show the parent alone.
measurement type: melting point

Look over these answered cases.
compound | melting point
Cc1ccc2nc(N3CCC(N)CC3)ccc2c1NC(=O)CC12CC3CC(CC(C3)C1)C2 (as salt: hydrochloride) | 295 °C
Cc1ccc2nc(NCCCO)ccc2c1NC(=O)CC12CC3CC(CC(C3)C1)C2 | 168 to 174 °C
O=C(CC12CC3CC(CC(C3)C1)C2)Nc1c(Cl)ccc2nc(NCCNCCO)ccc12 (as salt: hydrochloride) | 219 to 223 °C

IN: Look up and state reported melting point for CNCCCc1ccc2c(C(=O)NCC34CC5CC(CC(C5)C3)C4)c(Cl)ccc2n1 (as salt: hydrochloride) [Example 167, Sesquihydrochloride]
OUT: 184 to 185 °C
